System: Fer (mouse)
Assay: phosphorylation enrichment, bacterial display (enrichment ratio); higher = better substrate or ligand; peptides without Tyr show the background
As shown below, each of these sequences has a reported phosphorylation enrichment value.
PARAMETER: phosphorylation enrichment

- CSEEMYCLMLQ [RET_Y981_R982C]: 6.9
- VMLENYSNLLS [ZFP69_Y109_V113L]: 0.372
- NALAQYQEMEK [BBS4_Y395]: 0.454
- KNRDVYSSDYF [USP24_Y2134]: 0.495
- SLQSEYVHFGG [CDC14A_Y591_YF]: 0.442
- LSIDRYHAIVY [NPSR1_Y147]: 0.544
- RRKRAYVEIEF [MAK16_Y282_Q277R_YF]: 0.551
- EPSLVYMVTKI [CPS1_Y768_D767V]: 1.7
- SKQGKYLNWDA [ATM_Y54]: 0.454
- VSYDEYRYRSF [CFTR_Y515_V520F]: 0.435
- EKSREYHRLYE [PIK3R1_Y463_D464H]: 0.432
- NTGNFYDLFGG [PTPN11_Y63_D61N_YF]: 3.08
- AEMKRYSESSS [RAI14_Y869_A870S]: 0.38
- LRRFIYRPPDQ [OTOF_Y1231_R1236Q]: 0.445

* * *

This section presents sequences with their documented SH2 binding enrichment values.
Molecular target: SHP2-C SH2
Experiment: SH2 binding enrichment of the phosphorylated peptide, bacterial display (enrichment ratio); higher = better substrate or ligand; peptides without Tyr show the background
PARAMETER: SH2 binding enrichment

* VMTLDYSKTVV [SETD2_Y770_V768L] | 0.722
* TYVKSYTIHYS [F5_Y2153_M2148T] | 0.783
* RKKLFYKADGE [SERPINC1_Y272_E269K] | 0.628
* NKKHHYRELPV [ERN2_Y860] | 1.48
* EQWRAYLEGTC [HLA-C_Y183_L180W] | 0.718
* GHEFIYVDPMQ [PDGFRA_Y574_YF] | 0.661
* NTTIHYNFMCN [TP53_Y234_C229N_YF] | 0.701
* FEPWVYSLSYE [PRKDC_Y647_F649L] | 0.568
* AEMKRYSESSS [RAI14_Y869_A870S] | 0.767
* CTTIHYNFMCT [TP53_Y234_N239T_YF] | 1.99
* ENAGFYFRISA | 0.566
* ISKTWYSAEQF [CD207_Y217_P213S] | 0.781
* PEVCDYGLGGG [GSTO1_Y239_A236V] | 1.16
* IIRRLYLKWHP [SACS_Y4333] | 0.568

* * *

Target: c-Src SH2
Assay: SH2 binding enrichment of the phosphorylated peptide, bacterial display (enrichment ratio); higher = better substrate or ligand; peptides without Tyr show the background
Label rule, in plain words: SH2 binding enrichment of 0.5 and up is met, under 0.5 is not met.

* PFSNSYENSLI [EPOR_Y489_P488S_YF] | met
* LENSTYQFIHV [CRB1_Y760_R764H_YF] | not met
* CTTIHYNYMRN [TP53_Y234_C238R] | met
* GGKFSYLKVGH [GRM3_Y480_YF] | not met
* VDASYCGGRGV [ANTXR2_Y381_Y381C] | not met
* LFLASYCIGGG [UBD_Y161_C160S] | met
* CKLVDYDSARH [BIN1_Y150_R145C] | met
* LTVVIYVLIGR [EPHA3_Y561] | met
* DSRRDYVSQFE [APOA1_Y53_G50R] | met
* FSAPNYCFRCG [PPP2CA_Y265_YF] | met
* AQPHTYEEPGR [EPHA8_Y616_E612Q] | met
* KDHLDYKFQPR [SOX9_Y172_P170L_YF] | not met
* EHTILYSNNST [KANSL1_Y223_T221I] | met
* ERKQTYGSCRK [LACTB_Y473] | met
* QNTGYYYDLYG [PTPN11_Y62_D61Y] | met
* LADKPYTFEDY [FXN_Y118] | not met
* IFHLSYLHNCE [PDE6B_Y227_YF] | met
* LTEHGYSFTTT [ACTB_Y198_R196H] | met
* ILGRYYETSSI [PAX2_Y73_G76S] | met
* SVEELYAIPPD [PEAK1_Y797] | met
* HEPKGYNANFC [TGFB2_Y341] | met
* LKGQVYILGRE [ASS1_Y359] | not met
* TVETKYDNISR [SETDB2_Y477] | met
* PRARTYCYKQE [KLHDC9_Y175_S171R] | met
* SEPDLYCDPRG [PKP1_Y160] | met
* QYRFIYMAVQH [PTPN11_Y515] | met
* GESKDYALHVG [SVIL_Y185] | not met
* TFHNTYHSHMR [IL1RAPL1_Y615_Q618H] | met
* MDDPRYGMCPL [ZNF100_Y6] | met
* KLQKKYGPIYS [CYP17A1_Y60] | met
* DQNVEYKGTVW [FHL1_Y117] | not met
* TKDTFHKQPMF [GBA_Y451_Y451H] | met
* KNEVLYDGENH [ARFGEF1_Y314] | met
* SVTCPYSPALN [TP53_Y126_T125P] | met
* TFEFRYLEDQD [CNOT3_Y746_R750Q_YF] | met
* GVRTIYTIDGS [DCLK2_Y124] | met
* NTDETYCIDNK [TUBB3_Y200_E205K] | met
* NGPDVYVLPLT [AATK_Y93] | met
* PIYEGYALPHA [ACTA1_Y171] | met
* QMQLKYSQSDL [SMC1A_Y714_R711Q] | not met
* GHEFIYVDPMQ [PDGFRA_Y574_YF] | met
* ERCAQYKKDGA [ALDOA_Y138] | met
* YIILIYAMKKK [SLCO1B1_Y645] | met
* PSELFYSKIGP [SMG1_Y2254_YF] | met
* SDGHEYIFVDP [PDGFRB_Y579_YF] | met
* TSEASYYKSLN [NGEF_Y288] | met
* RAMPVYKKAEH [TP63_Y231] | not met
* GVRLFYRVMES [RB1_Y454_YF] | not met
* PDMHSYMVRYN [GRIN2D_Y732] | met
* TEFSQYMRRKN [MAX_Y73_I71S_YF] | not met
* EPSLVYMVTKI [CPS1_Y768_D767V] | not met
* REVPVYTYSEP [FAM120B_Y368_D370Y] | met
* DENRFYTRAAS [RPS19_Y54_W52R] | met
* HEKKAYSFCGT [RPS6KA3_Y226] | met
* CQAHGYFCQPI [STK11_Y156_L160P] | met

* * *

Target: Jak2 (UniProt O60674)
Sequence (O60674 whole entry, looked up): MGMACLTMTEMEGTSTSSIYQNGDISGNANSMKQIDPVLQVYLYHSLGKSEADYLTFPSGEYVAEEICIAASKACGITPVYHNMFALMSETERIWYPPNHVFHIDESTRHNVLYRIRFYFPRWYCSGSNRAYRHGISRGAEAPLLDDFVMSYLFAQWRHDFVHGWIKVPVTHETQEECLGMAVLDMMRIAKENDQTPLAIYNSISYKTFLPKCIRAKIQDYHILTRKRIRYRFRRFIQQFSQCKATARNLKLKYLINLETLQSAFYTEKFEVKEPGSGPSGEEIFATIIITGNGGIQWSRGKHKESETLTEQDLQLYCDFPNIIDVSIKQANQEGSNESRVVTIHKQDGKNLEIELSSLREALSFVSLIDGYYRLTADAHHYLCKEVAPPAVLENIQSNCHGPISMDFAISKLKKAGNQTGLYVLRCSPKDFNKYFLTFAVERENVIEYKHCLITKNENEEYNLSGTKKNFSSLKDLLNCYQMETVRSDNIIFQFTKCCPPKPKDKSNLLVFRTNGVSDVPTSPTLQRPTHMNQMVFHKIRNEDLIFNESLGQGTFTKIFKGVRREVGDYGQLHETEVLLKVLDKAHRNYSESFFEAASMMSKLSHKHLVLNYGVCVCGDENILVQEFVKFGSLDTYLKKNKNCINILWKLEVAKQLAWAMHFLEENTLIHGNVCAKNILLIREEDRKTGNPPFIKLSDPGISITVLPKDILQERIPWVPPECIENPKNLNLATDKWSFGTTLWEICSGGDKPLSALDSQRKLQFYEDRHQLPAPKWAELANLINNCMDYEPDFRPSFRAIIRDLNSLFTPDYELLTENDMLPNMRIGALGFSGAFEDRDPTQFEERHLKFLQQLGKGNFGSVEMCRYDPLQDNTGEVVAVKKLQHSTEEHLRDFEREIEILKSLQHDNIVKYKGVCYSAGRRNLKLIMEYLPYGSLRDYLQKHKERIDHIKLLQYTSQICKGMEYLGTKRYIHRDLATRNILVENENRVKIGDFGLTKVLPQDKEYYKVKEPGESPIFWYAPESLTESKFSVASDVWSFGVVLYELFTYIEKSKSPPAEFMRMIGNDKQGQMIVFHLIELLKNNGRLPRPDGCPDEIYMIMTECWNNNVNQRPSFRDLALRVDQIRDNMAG
Assay: phosphorylation enrichment, bacterial display (enrichment ratio); higher = better substrate or ligand; peptides without Tyr show the background
Cut-off 0.8 on phosphorylation enrichment, inclusive. At or above means t; below means f.

• KNRDVYSSDYF [USP24_Y2134] = t
• TQPSPYAVYRF [RPGRIP1_Y823] = t
• KLFYIYTSGTT [SLC27A4_Y245] = t
• DGFIDYAEFAK [MCFD2_Y138_YF] = t
• PQEVTYAQLDH [KIR3DL2_Y398] = t
• LTERSYSFVTT [ACTA1_Y200_G199S] = t
• KSIQLYDTPYE [SHB_Y297_G293S] = t
• SVTCTNSPALN [TP53_Y126_Y126N] = t
• DSILVYQRKEQ [USH2A_Y1909_G1911R] = f
• VFDHIYTTQSD [RET_Y928_L923V] = f
• FFSSEYHFVGG [CTSC_Y345_YF] = t
• IYLGAYDRFLP [SLC22A5_Y486_V481I] = t
• KHCEDYVFSYN [DSC1_Y846_C848F] = t
• SKDQICPMKLK [RANBP17_Y823_Y823C] = f
• SRIWVYNHFRW [BRCA2_Y2621_YF] = t
• LFLASYCIGGG [UBD_Y161_C160S] = t
• ARKWGYTVKGI [OAT_Y158] = f
• TVDASYYGGRG [ANTXR2_Y380] = f
• AQPHTYEEPGR [EPHA8_Y616_E612Q] = t
• RLLRGYNQSAY [HLA-C_Y137_D138N] = f
• VRFMAYTDEIF [F8_Y450_T454I] = t
• GINDDYGQLKN [NBN_Y679] = t
• ADLVQYFMEHH [PTPN11_Y80_E76D_YF] = t
• LSSVSYVGCSL [ADGRD1_Y571_I569V] = t
• KMLEKYKERLN [TLK2_Y259] = t
• DRPASYKKKSM [PDGFRA_Y768] = f
• RQAQAYRGQRV [TSHR_Y706] = t
• QITQVYGFFHE [PPP2CA_Y127_D131H_YF] = t
• DRTVHYVDEKG [IFT140_Y216_G212R] = f
• PLDGEYVTLQI [TP53_Y327_F328V] = t
• QNTGYYYDLYG [PTPN11_Y62_D61Y] = t
• LTEEKYELKEG [TREM1_Y29] = t
• YGAHKYHPLPV [OAT_Y55_N54K] = f
• THLARYSDELR [APOA1_Y190_P189R] = f
• GKFRMYVAVWT [F13A1_Y161] = t
• VGTTAYMAPEA [IRAK4_Y354] = f
• MAPQMYESHLP [NCAPD2_Y6_F8S] = f
• ELPQTYCVSGP [DYSF_Y1684_G1679E] = t
• YHLLPYTVRAM [PARS2_Y93] = t
• SHNKFYMLVAR [MFSD8_Y134_YF] = t
• CTTVHYNYMCN [TP53_Y234_I232V] = f
• TEYIQYVRRKN [MAX_Y73_M74V] = f
• SEKISYVFMKR [SSX7_Y48_L43S_YF] = t
• RIVEIYTRRLQ [GCH1_Y175_S176T] = f
• NRLTDYYELLL [BBS10_Y536_P539L] = t
• PINLYYLMDLS [ITGB2_Y131_D128N] = t
• PVQAAYQQVVA [HBB_Y131_K133Q] = f
• QDEHGYISRCF [HSPB1_Y133] = t
• IINENYDFLKV [NUP98_Y1664_G1669V_YF] = t
• GFILMYDITNE [RAB3C_Y110] = t
• KLKRSYPSPDI [USP8_Y717_S718P] = f
• WVYNHYRWFIW [BRCA2_Y2624_I2627F] = t
• LIFTNYEVGKD [GSTP1_Y112_A114V_YF] = t
• PVDNLYAEPAV [PRPS1_Y146] = t
• KPGLVYNKVNP [SPRED3_Y72] = t
• NALAQYQEMEK [BBS4_Y395] = f

From: the supplement of paper PMC10065799
